These entries and their values trace back to patent US20260028354A1.

- target-desc: ER in MCF-7 cells (Homo sapiens (Human))
- Sequence (P03372 whole entry): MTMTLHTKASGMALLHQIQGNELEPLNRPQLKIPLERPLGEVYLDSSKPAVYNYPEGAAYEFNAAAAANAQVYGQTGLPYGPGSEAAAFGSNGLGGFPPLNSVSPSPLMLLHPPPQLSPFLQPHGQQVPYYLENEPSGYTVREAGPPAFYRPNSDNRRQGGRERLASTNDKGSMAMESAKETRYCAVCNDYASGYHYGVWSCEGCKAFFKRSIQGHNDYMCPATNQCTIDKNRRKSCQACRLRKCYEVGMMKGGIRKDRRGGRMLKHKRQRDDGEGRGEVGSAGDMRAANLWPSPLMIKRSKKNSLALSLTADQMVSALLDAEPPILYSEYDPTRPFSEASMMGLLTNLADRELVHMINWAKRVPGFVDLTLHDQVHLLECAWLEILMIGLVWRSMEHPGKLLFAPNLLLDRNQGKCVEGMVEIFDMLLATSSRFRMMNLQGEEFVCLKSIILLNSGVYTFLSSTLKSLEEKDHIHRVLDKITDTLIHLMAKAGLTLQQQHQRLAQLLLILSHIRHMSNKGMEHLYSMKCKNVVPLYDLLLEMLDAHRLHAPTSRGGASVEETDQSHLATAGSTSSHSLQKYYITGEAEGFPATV
- experiment-summary: In-cell Western (ICW) ER degradation assay in MCF-7 cells
- Assay type: cell-based
- test-parameters: MCF-7, maximal ER degradation, 16 hrs treatment

molecule	target-desc	MCF7 Dmax
O=C1CC[C@H](N2Cc3c(ccc4c3OC[C@H]3CN(CC5COC6(C5)CN(c5ccc([C@@H]7c8ccc(O)cc8CC[C@@H]7c7ccccc7)cc5)C6)CCN43)C2=O)C(=O)N1 (single isomer, unassigned) [Compound A7]	ER in MCF-7 cells (Homo sapiens (Human))	B (“B”: >50 and <75%)
O=C1CC[C@H](N2Cc3cc4c(cc3C2=O)OCC42CCN(CC3CC4(CCN(c5ccc([C@@H]6c7ccc(O)cc7CC[C@@H]6c6ccccc6)cn5)CC4)C3)CC2)C(=O)N1	ER in MCF-7 cells (Homo sapiens (Human))	B (“B”: >50 and <75%)
